# MEASUREMENT DESCRIPTION: Acute toxicity of NaOGe in mice
# Type: in vivo, Mice (ICR strain)
# TEST CONDITIONS: mouse, in vivo, po; per os, male
# Text: Acute Toxicities of NaOGe according to the […]
PROPERTY: LD50

O=C([O-])C[CH2][Ge]([OH])([OH])[OH].[Na+] [NaOGe, Sodium 3-trihydroxygermylpropionate] :: > 10000 mg/kg

---

# MEASUREMENT DESCRIPTION: Acute toxicity of NaOGe in rats
# Type: in vivo, Rats (Wistar strain)
# TEST CONDITIONS: rat, in vivo, po; per os, male
# Description: Acute Toxicities of NaOGe according to the […]
PROPERTY: LD50

O=C([O-])C[CH2][Ge]([OH])([OH])[OH].[Na+] [NaOGe, Sodium 3-trihydroxygermylpropionate] :: > 10000 mg/kg
